Recorded values, source ChEMBL document CHEMBL1201862.

# Tested on: SF-539
# ASSAY_PROCEDURE: NCI tumour cell line growth inhibition, 48 h
The source made the active and inactive calls. Cut-off read from the data, not from the text of the source: active = GI50 up to about 1.1 µM and inactive = higher.
PROPERTY: GI50

>>> recorded_measurement("CCOC(CCNCC(OCC)OCC)OCC")
"> 10 µM (inactive)"
>>> recorded_measurement("O=[N+]([O-])c1ccc(C2=NOC(c3ccc(Cl)cc3)N2C23CC4CC(CC(C4)C2)C3)cc1 (stereo not drawn)")
"> 100 µM (inactive)"
>>> recorded_measurement("COc1cc2c[n+](C)c3c4ccccc4ccc3c2cc1OC.COc1cc2cnc3c4ccccc4ccc3c2cc1OC")
"10 µM (inactive)"
>>> recorded_measurement("CC1=NN=C(NCCN(C)C)C/C1=C/c1ccccc1Cl")
"> 100 µM (inactive)"
>>> recorded_measurement("CCOC(=O)c1[nH]c(-c2[nH]c(-c3[nH]c(-c4[nH]c(C(=O)OCC)c(C)c4C(=O)OCC)c(C(=O)OCC)c3C)c(C)c2C(=O)OCC)c(C(=O)OCC)c1C")
"> 100 µM (inactive)"
>>> recorded_measurement("Nc1c2c(nc3ccccc13)-c1ccccc1CCC2")
"13.4 µM (inactive)"
>>> recorded_measurement("COc1cc([C@@H]2c3cc4c(cc3[C@@H](c3c(O)cc(O)c5c3O[C@H](c3ccc(O)c(O)c3)[C@@H](O)C5)[C@H]3COC(=O)[C@H]23)OCO4)cc(OC)c1O")
"58.7 µM (inactive)"
>>> recorded_measurement("Cc1c(C(=O)C(=O)c2ccccc2)c(C)c(C(=O)C(=O)c2ccccc2)c(C)c1C(=O)C(=O)c1ccccc1")
"> 100 µM (inactive)"
